B1: Scaffold protein ILK (Homo sapiens), Q13418 (parent)
chain: MDDIFTQCREGNAVAVRLWLDNTENDLNQGDDHGFSPLHWACREGRSAVVEMLIMRGARINVMNRGDDTPLHLAASHGHRDIVQKLLQYKADINAVNEHGNVPLHYACFWGQDQVAEDLVANGALVSICNKYGEMPVDKAKAPLRELLRERAEKMGQNLNRIPYKDTFWKGTTRTRPRNGTLNKHSGIDFKQLNFLTKLNENHSGELWKGRWQGNDIVVKVLKVRDWSTRKSRDFNEECPRLRIFSHPNVLPVLGACQSPPAPHPTLITHWMPYGSLYNVLHEGTNFVVDQSQAVKFALDMARGMAFLHTLEPLIPRHALNSRSVMIDEDMTARISMADVKFSFQCPGRMYAPAWVAPEALQKKPEDTNRRSADMWSFAVLLWELVTREVPFADLSNMEIGMKVALEGLRPTIPPGISPHVCKLMKICMNEDPAKRPKFDMIVPILEKMQDK
partner: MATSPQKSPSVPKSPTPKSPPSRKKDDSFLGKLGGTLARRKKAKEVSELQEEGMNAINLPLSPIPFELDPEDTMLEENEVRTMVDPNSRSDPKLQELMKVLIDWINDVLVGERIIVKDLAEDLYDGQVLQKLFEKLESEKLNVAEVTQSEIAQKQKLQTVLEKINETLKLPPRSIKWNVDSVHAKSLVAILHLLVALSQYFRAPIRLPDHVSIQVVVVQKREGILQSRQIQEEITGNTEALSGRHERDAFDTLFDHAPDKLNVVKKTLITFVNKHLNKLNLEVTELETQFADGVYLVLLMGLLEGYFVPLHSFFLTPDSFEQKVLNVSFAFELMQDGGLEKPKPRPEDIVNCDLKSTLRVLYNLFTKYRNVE

variants of: B1; conditions: with parva_human PARVA
property: effect of a mutation on the interaction

Q362H
with no effect
R46H
with no effect
V340G
with no effect
L311I
with no effect
L314H
with no effect
A262V
with no effect

State its effect of a mutation on the interaction for this variant: M425I
with no effect
